# System: FGR;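 further: KINOMEscan kinase panel screen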
# measurement_conditions: concentration: 1 μM, replicates: in singlicate; n = 1
I'd appreciate it if you marked entries Met when %Inh is lower than 30% and Not met when it is not.

{"columns": ["compound", "qualitative_label"],
 "data": [
  ["O=c1cc(N2CCOCC2)nc2n(Cc3cccc(F)c3)ccn12", "Not met"],
  ["CCc1nc(-c2cccc(C)c2)c(-c2ccnc(NCc3ccccc3)c2)s1", "Met"],
  ["COc1cc2c(cc1OCCN1CCN(C)CC1)ncc1c3ccc(C#N)cc3[nH]c21", "Met"],
  ["Cc1nnc(-c2ccc3occ(-c4ccc(C(C)O)cc4)c3c2)o1 (stereo not drawn)", "Met"],
  ["Cc1c2ccc(N(C)c3ccnc(Nc4cccc(S(N)(=O)=O)c4)n3)cc2nn1Cc1ccccc1.Cl.Cl", "Not met"],
  ["COc1cc(Nc2nccc(N3CCC(NC(=O)c4cccc(NC(C)=O)c4)C3)n2)cc(OC)c1OC (stereo not drawn)", "Met"],
  ["CN(C1=C(c2ccccc2)C(=O)NC1=O)c1ccccc1", "Met"],
  ["COC(=O)Nc1nc2cc(Oc3ccc(NC(=O)Nc4cc(F)ccc4F)cc3)ccc2[nH]1.Cl", "Met"]
]}
